Reported TGI values follow for various compounds
# System: U251 CNS
# ASSAY NAME: NCI tumour cell line growth inhibition, 48 h

{"columns": ["COMPOUND", "TGI"],
 "data": [
  ["CC(C)=CC(=O)CC(=O)C(=O)Nc1ccc(Cl)c(Cl)c1", "> 100 µM"],
  ["COC(=O)C(Cc1nc2ccc(Cl)cc2[nH]c1=O)C(=O)C(=O)Nc1ccccc1[N+](=O)[O-] (stereo not given)", "> 100 µM"],
  ["Cc1cccc(C)c1NC(=O)CCCC(=O)C1CCC/C1=N\\NC(=O)C(=O)NN (stereo not given)", "> 100 µM"],
  ["CC(CCc1ccc2c(c1)c(=N)c1ccc(N)cc1n2O)CC(C)(C)C (stereo not given)", "2.67 µM"],
  ["O=c1cccccc1NCCCCCCCCCNc1cccccc1=O", "30 µM"],
  ["CC(C)OC(=O)c1ccc2[nH]c(O)c(C(=Nc3ccc(N(C)C(=O)CN4CCN(C)CC4)cc3)c3ccccc3)c2c1", "2.4 µM"],
  ["O=[N+]([O-])c1ccc(CS(=O)Cc2ccccc2)cc1 (stereo not given)", "> 100 µM"],
  ["N#Cc1ccc(OCc2ccc3nc(-c4ccccc4)c(Cl)nc3c2)cc1", "> 100 µM"],
  ["CCOC(=O)N1C2C=C(C)C(C3C(C)C(=O)N31)N(C(=O)c1ccccc1)O2 (stereo not given)", "> 100 µM"]
]}

Name the recorded TGI for COc1cc2c(c(OC)c1OC)C(=O)[C@H]1OC(=O)N[C@@H]21 .
> 100 µM

----------
# Test system: A498 renal
# ASSAY NAME: NCI tumour cell line growth inhibition, 48 h
Entries and their GI50

What value of GI50 has been recorded for this entry: COc1ccc2c(c1)C(=O)c1c-2n(CCCN2CCOCC2)c(=O)c2ccccc12
1870 nM

----------
# Tested on: SF-268 CNS
# ASSAY NAME: NCI tumour cell line growth inhibition, 48 h
QUANTITY MEASURED: TGI

{"columns": ["MOLECULE", "TGI"],
 "data": [
  ["N#Cc1ccccc1NC(=O)c1ccccc1", "> 100 µM"]
]}

Here is the next item to consider.
Dear colleague, I am looking for the recorded TGI of the following molecule: Cc1cccc(C(C)(C)C)c1NC(=O)C(=O)C(c1cnc2ccccc2n1)[N+](=O)[O-] (stereo unspecified)
> 100 µM

----------
Readings of TGI for the listed molecules
# Tested on: DU-145 prostate
# ASSAY NAME: NCI tumour cell line growth inhibition, 48 h
Unit µM implied. Number only.

// worked examples, TGI included
{"columns": ["MOLECULE", "TGI (µM)"],
 "data": [
  ["COc1ccc(/C=C(\\NC(=O)c2ccccc2)C(=O)NN(C)c2ccnc3cc(Cl)ccc23)cc1OC", 66.3],
  ["CC1CC[C@@]2(OC1)OC1C[C@H]3[C@@H]4CC[C@H]5CC(OC6OC(CO)C(OC7OC(CO)C(O)C(O)C7O)C(O)C6O)CCC5(C)[C@H]4CCC3(C)C1[C@@H]2C (stereo not given in full)", 18]
]}

Recorded TGI for C1=NCCOCCN=Cc2ccccc2OCc2cccc(n2)COc2ccccc21 with DU-145 prostate, please?
20.7

Another molecule to look at: Cc1c(C)c2ccc(OC/C=C3\CCC(=O)O3)cc2oc1=O
26.1
